The reported measurements were obtained from paper PMC4026020.

# assaySystem: T1, MBP-AtTZF1 RR-TZF C136R/C171R (Arabidopsis thaliana, UniProt O82307 86-195, C136R;C171R)
# T1 sequence: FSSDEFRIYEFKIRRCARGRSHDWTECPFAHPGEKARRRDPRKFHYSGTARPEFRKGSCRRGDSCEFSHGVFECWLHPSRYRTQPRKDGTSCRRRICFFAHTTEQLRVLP
# measurementProtocol: fluorescence anisotropy
Form field: Kd (one value per entry).

| binder | Kd |
| --- | --- |
| UAUUUAUUAUUUAUUUAUU (ssRNA) [Fl-ARE19] | 1.54 µM |
| UUUUUUUUUUUUUUUUUUU (ssRNA) [Fl-polyU] | 1.61 µM |
